Values from paper PMC4072591

TARGET: FGFR2 (Homo sapiens, UniProt P21802)
Construct: endogenous amplified FGFR2 in NCI-H716 cells
Sequence (P21802 22-821): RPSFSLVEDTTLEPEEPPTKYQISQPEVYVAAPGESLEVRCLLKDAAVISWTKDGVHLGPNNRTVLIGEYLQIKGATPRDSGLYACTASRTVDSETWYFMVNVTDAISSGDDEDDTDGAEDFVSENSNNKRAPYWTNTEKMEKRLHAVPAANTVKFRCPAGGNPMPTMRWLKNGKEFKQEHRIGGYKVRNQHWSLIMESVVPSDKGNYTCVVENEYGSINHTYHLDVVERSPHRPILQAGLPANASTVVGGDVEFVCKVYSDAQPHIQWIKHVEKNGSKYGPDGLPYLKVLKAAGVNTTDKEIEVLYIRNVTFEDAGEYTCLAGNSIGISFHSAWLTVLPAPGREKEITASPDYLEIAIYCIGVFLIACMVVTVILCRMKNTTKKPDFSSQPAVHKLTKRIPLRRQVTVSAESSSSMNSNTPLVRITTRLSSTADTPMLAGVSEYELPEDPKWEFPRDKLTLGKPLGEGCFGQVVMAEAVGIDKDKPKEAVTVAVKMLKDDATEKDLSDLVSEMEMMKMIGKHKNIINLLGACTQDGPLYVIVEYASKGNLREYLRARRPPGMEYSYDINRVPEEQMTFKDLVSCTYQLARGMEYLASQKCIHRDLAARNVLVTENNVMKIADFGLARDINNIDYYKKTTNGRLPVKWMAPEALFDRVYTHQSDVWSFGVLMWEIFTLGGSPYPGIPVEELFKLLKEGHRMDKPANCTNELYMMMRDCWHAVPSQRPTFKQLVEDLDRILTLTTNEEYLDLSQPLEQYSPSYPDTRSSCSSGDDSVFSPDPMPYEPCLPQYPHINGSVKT
TEST PROTOCOL: FGFR2 Y653/[…] phosphorylation in NCI-H716 cells, western blot quantitation
MEASUREMENT TYPE: pIC50
Scale explanation: pIC50 corresponds to minus log10 of a concentration expressed in moles per litre.

Q. Give the reported pIC50 for CN(C[C@@H]1COCCO1)S(=O)(=O)Nc1ccc2ccc3ncc(-c4cnn(C)c4)cc3c(=O)c2c1 (system: FGFR2 (Homo sapiens, UniProt P21802)).
A. 6.78
